- assayInfo: modulators of CIT2-GFP expression in yeast, confirmation, S. cerevisiae, GFP fusion, cherry picks, mother/daughter gates (AID 2274)
- reportedConditions: S. cerevisiae CIT2-GFP strain, flow cytometry, 3 h; measured here: mother cell gate; at 10 µM; stronger effect = higher value
Below is a list of entries, each paired with its recorded GFP response, % of DMSO value.
Numeric only. Scale: %

**Q:** Form field: reported GFP response, % of DMSO of CC(C)COC(=O)NCC12C=CC(O1)C1C(=O)N(c3ccc(Cl)cc3)C(=O)C12 (stereo not given)
**A:** 102

**Q:** GFP response, % of DMSO lookup needed for "CCN(Cc1ccccc1)S(=O)(=O)c1ccc(C(=O)Nc2nnc(-c3ccccc3OC)o2)cc1" , thanks.
**A:** 99.7

**Q:** Which GFP response, % of DMSO value belongs to COc1cc(C)c(C)cc1S(=O)(=O)N1CCCCC1c1cccnc1 (stereo not given) ?
**A:** 95.6

**Q:** Look up GFP response, % of DMSO for this compound: "CCNC(=O)/C(C#N)=C/c1c(N2CCN(Cc3ccc4c(c3)OCO4)CC2)nc2c(C)cccn2c1=O"
**A:** 104

**Q:** Entry "CC1(C)CCN2CCC(C)(C)c3c(O)ccc1c32" has what GFP response, % of DMSO?
**A:** 119
